For each entry below, report its %Inh value.
- Tested on: PAK7
- condition_label: concentration: 1 μM, replicates: in singlicate; n = 1;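 also: KINOMEscan kinase panel screen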
Dear colleague, please return just the value in %, with no unit written.

Q. Could you tell me which %Inh is on file for Fc1cc(Cl)ccc1Nc1ccnc2cc(-c3ccc(CN4CCSCC4)o3)ccc12 [GW560106] ?
A. 0

Q. Could you tell me which %Inh is on file for Cc1ccc(C)c(NC(=O)Nc2ccc(C)c(-c3ccc(C(=O)Nc4ccncc4)cc3)c2)c1 [GSK1398473] ?
A. 0

Q. Could you tell me which %Inh is on file for CC(C)c1nc(-c2cccc(NS(=O)(=O)c3c(F)cccc3F)c2)c(-c2ccnc(Nc3ccc(N4CCOCC4)nc3)n2)s1.Cl [GSK1723980] ?
A. 0

Q. Could you tell me which %Inh is on file for O=C(Nc1n[nH]c2cc(-c3cccs3)ccc12)C1CC1 [SB-731284] ?
A. 7

Q. Could you tell me which %Inh is on file for Cl.Cl.NCC(NC(=O)c1cc(-c2cccnc2)c(-c2ccnc3[nH]ccc23)s1)c1ccccc1 (centres unmarked) [GSK1323434] ?
A. 65

Q. Could you tell me which %Inh is on file for c1ccc(Oc2ccc(Nc3ccnc4cc(-c5ccc(CN6CCCCC6)o5)ccc34)cc2)nc1 [GW567143] ?
A. 8

Q. Could you tell me which %Inh is on file for Cl.O=C(Nc1ccc(Oc2ccc3[nH]c(NC(=O)c4ccco4)nc3c2)cc1)Nc1cc(C(F)(F)F)ccc1F [GW683134] ?
A. 0

Q. Could you tell me which %Inh is on file for N#CC1(c2cccc(C(=O)Nc3cccc(Oc4ccc5nc(NC(=O)C6CC6)sc5n4)c3)c2)CC1 ?
A. 0

----------
- Tested on: YSK1
- Construct: gene STK25
- condition_label: concentration: 1 μM, replicates: in singlicate; n = 1
For each entry below, report its %Inh value.
Dear colleague, please return just the value in %, with no unit written.

Q. Could you tell me which %Inh is on file for CNc1nccc(-c2ccc3c(N)n[nH]c3c2)n1 ?
A. 20

Q. Could you tell me which %Inh is on file for CC(C)(C)c1ccc(C(=O)Nc2cn3cc(-n4ccnc4)ccc3n2)cc1 ?
A. 0

Q. Could you tell me which %Inh is on file for CN(C)c1ncnc2nc[nH]c12 ?
A. 0

Q. Could you tell me which %Inh is on file for COc1cccc(CC(=O)N2CCc3cc(-c4cn(C)c5ncnc(N)c45)ccc32)c1 ?
A. 17

Q. Could you tell me which %Inh is on file for Cc1nn2c(=O)cc(N3CCO[C@H](C)C3)nc2n1Cc1cccc(Cl)c1Cl ?
A. 0

Q. Could you tell me which %Inh is on file for O=C(Nc1n[nH]c2cc(-c3cccs3)ccc12)C1CC1 ?
A. 0

Q. Could you tell me which %Inh is on file for CC(=O)Nc1cn2nc(Oc3cccc(NC(=O)c4cccc(C(F)(F)F)c4)c3)ccc2n1 ?
A. 0

Q. Could you tell me which %Inh is on file for CCOc1nccc(-c2c(-c3ccc(F)cc3)ncn2C2CCNCC2)n1 ?
A. 2

Q. Could you tell me which %Inh is on file for Cc1ccccc1CC(=O)N1CCc2cc(-c3cn(C)c4ncnc(N)c34)ccc21 ?
A. 54

----------
- System: GRK2
- Construct: gene ADRBK1
- condition_label: concentration: 1 μM, replicates: in singlicate; n = 1
property_label: %Inh (%)
Dear colleague, please return just the value in %, with no unit written.

Q. Return %Inh measured with GRK2 given this compound: O=C(O)C(F)(F)F.O=c1[nH]ccc2nc(N[C@@H]3CCNC3)nc(Nc3cc(Cl)cc(Cl)c3)c12 [GSK2188764]
A. 47

Q. Return %Inh measured with GRK2 given this compound: NCCC(NC(=O)c1cc(Br)c(-c2ccnc3[nH]ccc23)s1)c1ccccc1.O=C(O)C(F)(F)F.O=C(O)C(F)(F)F (stereo not drawn) [GSK1307810]
A. 82

Q. Return %Inh measured with GRK2 given this compound: Cn1cc(-c2ccc3c(c2)CCN3C(=O)Cc2cc(F)cc(F)c2F)c2c(N)ncnc21 [GSK2634140]
A. 0

Q. Return %Inh measured with GRK2 given this compound: CCNc1nccc(-c2c(-c3ccc(F)cc3)ncn2C2CCN(C)CC2)n1
A. 0

Q. Return %Inh measured with GRK2 given this compound: CN(C)CCNS(=O)(=O)c1ccc(-c2ccnc3[nH]ccc23)cc1 [GSK977620]
A. 0

Q. Return %Inh measured with GRK2 given this compound: O=C(Nc1n[nH]c2nc(-c3cccc(O)c3)ccc12)C1CC1 [SB-711805]
A. 0

----------
For each entry below, report its %Inh value.
- System: HIPK1
- condition_label: concentration: 1 μM, replicates: in singlicate; n = 1
Respond with the figure and its unit, in that order.

Q. Could you tell me which %Inh is on file for COC(=O)Nc1nc2ccc(Oc3ccc(NC(=O)Nc4cc(C(F)(F)F)ccc4F)cc3)cc2[nH]1.Cl [GW654607] ?
A. 8%

Q. Could you tell me which %Inh is on file for CC(C)(C)c1ccc(C(=O)Nc2cn3cc(-n4ccnc4)ccc3n2)cc1 ?
A. 32%

Q. Could you tell me which %Inh is on file for COc1ccc(NC(=O)c2ccoc2)cc1-c1ccc(C(=O)NCC2CC2)cc1 [GW810437] ?
A. 5%

Q. Could you tell me which %Inh is on file for CC(C)c1nc(-c2ccc(F)c(NS(=O)(=O)c3c(F)cccc3F)c2)c(-c2ccnc(Nc3ccc(N4CCOCC4)nc3)n2)s1 [GSK1804250] ?
A. 17%

Q. Could you tell me which %Inh is on file for CSc1ccc(NC2=C(c3ccc(Cl)cc3)C(=O)NC2=O)cc1 [SB-317658] ?
A. 2%

Q. Could you tell me which %Inh is on file for CCn1cnc2c(NCc3ccccc3)ncnc21 [SKF-96418] ?
A. 27%

Q. Could you tell me which %Inh is on file for CCNc1nccc(-c2c(-c3ccc(F)cc3)ncn2C2CCN(C)CC2)n1 ?
A. 39%

Q. Could you tell me which %Inh is on file for CC(C)c1nc(-c2cccc(NS(=O)(=O)c3c(F)cccc3F)c2)c(-c2ccnc(Nc3ccc(N4CCOCC4)nc3)n2)s1.Cl [GSK1723980] ?
A. 93.2%

Q. Could you tell me which %Inh is on file for Cc1cc(-c2ccnc(Nc3cccc(C#N)c3)n2)cc(C)c1O [GSK1440913] ?
A. 98.3%

Q. Could you tell me which %Inh is on file for COc1cccc(-c2nc(-c3ccccc3)[nH]c2-c2ccncc2)c1 [SB-610250] ?
A. 0%

Q. Could you tell me which %Inh is on file for Cc1ccc(NC(=O)c2cccc(N3CCCCC3)c2)cc1-c1ccc(C(=O)NCC2CC2)cc1 [GSK1917008] ?
A. 0%

Q. Could you tell me which %Inh is on file for Cc1ccc(NC(=O)c2ccc(Cl)c(Cl)c2)cc1-c1ccc(C(=O)Nc2ccncc2)cc1 [GSK1398460] ?
A. 0%

Q. Could you tell me which %Inh is on file for CN(C)CCOc1ccc(-c2cc(-c3ccc(Cl)c(O)c3)c(-c3ccncc3)[nH]2)cc1.Cl.Cl [SB-684387] ?
A. 2%

Q. Could you tell me which %Inh is on file for Cc1ccc(NC(=O)c2ccnc(N3CCCCC3)c2)cc1-c1ccc(C(=O)NCC2CC2)cc1 [GW775610] ?
A. 11%

Q. Could you tell me which %Inh is on file for CC(C)NCC(Cc1ccccc1)NC(=O)c1cc(Br)c(-c2ccnc3[nH]ccc23)s1.Cl.Cl (stereo not drawn) [GSK1383281] ?
A. 30%

Q. Could you tell me which %Inh is on file for COc1cc(Nc2nccc(N3CCC(NC(=O)Nc4ccc5c(c4)OCO5)C3)n2)cc(OC)c1OC (stereo not drawn) [GSK1379766] ?
A. 0%

Q. Could you tell me which %Inh is on file for CCOc1nccc(-c2c(-c3ccc(F)cc3)ncn2C2CCNCC2)n1 [SB-249175] ?
A. 59%

Q. Could you tell me which %Inh is on file for Cc1ccc(C)c(NC(=O)Nc2ccc(C)c(-c3ccc(C(=O)Nc4ccncc4)cc3)c2)c1 [GSK1398473] ?
A. 0%

Q. Could you tell me which %Inh is on file for O=C(O)C(F)(F)F.O=c1[nH]ccc2nc(N[C@@H]3CCNC3)nc(Nc3ccc4c(c3)S(=O)(=O)CC4)c12 [GSK2181306] ?
A. 75%

Q. Could you tell me which %Inh is on file for O=C(Nc1n[nH]c2cc(-c3cccs3)ccc12)C1CC1 [SB-731284] ?
A. 37%

Q. Could you tell me which %Inh is on file for Fc1cc(Cl)ccc1Nc1ccnc2cc(-c3ccc(CN4CCOCC4)o3)ccc12 [GW560109] ?
A. 0%

Q. Could you tell me which %Inh is on file for O=C(Nc1n[nH]c2nc(-c3cccc(O)c3)ccc12)C1CC1 [SB-711805] ?
A. 57%

Q. Could you tell me which %Inh is on file for COc1ccc(C2=C(Nc3cccc(O)c3)C(=O)NC2=O)cc1 [SB-390766] ?
A. 0%

Q. Could you tell me which %Inh is on file for CN(c1ccc(NC(=O)Nc2cccc(Cl)c2)cc1)c1ccnc(N)n1.Cl [GW830707] ?
A. 0%

Q. Could you tell me which %Inh is on file for CN(c1ccc2c(c1)nc(NCc1ccccc1)n2C)c1ccnc(Nc2ccc(CS(C)(=O)=O)cc2)n1.Cl [GW811603] ?
A. 41%

Q. Could you tell me which %Inh is on file for COc1cccc(CC(=O)N2CCc3cc(-c4cn(C)c5ncnc(N)c45)ccc32)c1 [GSK2608899] ?
A. 0%

Q. Could you tell me which %Inh is on file for NCCC(NC(=O)c1cc(Br)c(-c2ccnc3[nH]ccc23)s1)c1ccccc1.O=C(O)C(F)(F)F.O=C(O)C(F)(F)F (stereo not drawn) [GSK1307810] ?
A. 53%

Q. Could you tell me which %Inh is on file for Cc1cc(-c2c(-c3ccc(F)cc3)ncn2CCCN2CCOCC2)nc(N)n1 [SB-222517] ?
A. 44%

Q. Could you tell me which %Inh is on file for Cl.O=C(Nc1ccc(Oc2ccc3[nH]c(NC(=O)c4ccco4)nc3c2)cc1)Nc1cc(C(F)(F)F)ccc1F [GW683134] ?
A. 0%

Q. Could you tell me which %Inh is on file for N#CC1(c2cccc(C(=O)Nc3cccc(Oc4ccc5nc(NC(=O)C6CC6)sc5n4)c3)c2)CC1 ?
A. 6%

Q. Could you tell me which %Inh is on file for Cl.Cl.NC(CNC(=O)c1cc(Br)c(-c2ccnc3[nH]ccc23)s1)c1ccccc1 (stereo not drawn) [GSK1322949] ?
A. 65%

Q. Could you tell me which %Inh is on file for Fc1cc(Cl)ccc1Nc1ccnc2cc(-c3ccc(CN4CCSCC4)o3)ccc12 [GW560106] ?
A. 3%

Q. Could you tell me which %Inh is on file for COc1cccc(C2=C(Nc3cccc(O)c3)C(=O)NC2=O)c1 [SB-390771] ?
A. 0%
